Each recorded value in this set is attributed to PubChem BioAssay (NCI).

Below is a list of entries, each paired with its recorded growth value.
Tested on: HCT-15 colon
Assay: NCI-60 one-dose screen, 48 h (100 = growth as untreated, 0 = no growth, -100 = all killed)
Details: 10 µM unless noted
The panel holds about 83,000 compounds, 20% with a hit somewhere; the sample as a whole holds those more often.
experimental_readout: growth (%)

INSERT INTO assay_data (molecule, display_unit, measurement) VALUES
  ('CCOC(=O)c1ccc(C(C)(C)C)cc1', '%', 111),
  ('CC(C)(CC(=O)O)CC(=O)O', '%', 105),
  ('CN(C)c1ccc2nc3ccc(=[N+](C)C)cc-3oc2c1', '%', 33.3),
  ('O=[N+]([O-])c1c(O)c(CNCCCO)cc(CNCCCO)c1O', '%', 106),
  ('Cc1ccc2nc(N)nnc2c1', '%', 102),
  ('CCN(CC)CCCC(C)NC(=S)N/N=C(\C)c1ccccn1 (stereo unspecified)', '%', 32.7),
  ('Clc1cccc(Cl)c1CSc1nc2ccccc2n2cccc12', '%', 68.2),
  ('C#CC(O)c1ccccc1 (stereo unspecified)', '%', 103),
  ('COc1ccc(Nc2cc(Cl)ccc2C(=O)O)cn1', '%', 106),
  ('COc1nc2ccccc2s1', '%', 98),
  ('CCCCCCCCCCCCSC1=C(Cl)C(=O)C(OC)=C(OC)C1=O', '%', 25.6),
  ('CCOc1ccc(NC(=S)N2CCC(CCCC3CCN(C(=S)Nc4ccc(OCC)cc4)CC3)CC2)cc1', '%', 84),
  ('N#C/C(=C\c1ccc(C#N)cc1)C(=O)c1ccccc1', '%', 95.7),
  ('Nc1ccn(C2CC(N)C(CO)O2)c(=O)n1 (stereo unspecified)', '%', 71.4),
  ('O=C(Oc1ccccc1Cl)c1ccc(Cl)cc1Cl', '%', 103),
  ('COc1cc(N)c2ncccc2c1Cl', '%', 90.5),
  ('CCOC(=O)C(=O)CC(=O)c1ccccc1', '%', 102),
  ('CCCC(OC(C)=O)c1ccc2c(c1)OCO2 (stereo unspecified)', '%', 115),
  ('Cc1ccc2[nH]c3ccccc3c2c1', '%', 79.6),
  ('O=Cc1ccc(O)c(O)c1', '%', 103),
  ('C=CCC(OC(C)=O)c1ccc(OC)c(OC)c1 (stereo unspecified)', '%', 104);

* * *

Below is a list of entries, each paired with its recorded growth value.
System: SK-MEL-28 melanoma
Assay: NCI-60 one-dose screen, 48 h (100 = growth as untreated, 0 = no growth, -100 = all killed)
Settings: 10 µM unless noted
This is part of a sample that, as a whole, favours compounds with a hit. Of some 83,000 tested, about 20% had one in any assay.
experimental_readout: growth (%)

INSERT INTO assay_data (compound, target_entity, experimental_readout, display_unit, measurement) VALUES
  ('CCCCNc1ccc(-c2ccc(NCCCC)cc2)cc1', 'SK-MEL-28 melanoma', 'growth', '%', 71.5),
  ('O=C1C=CC(=O)C2=C1CCCC2', 'SK-MEL-28 melanoma', 'growth', '%', 108),
  ('O=C(O)c1c[nH]c2ccccc2c1=O', 'SK-MEL-28 melanoma', 'growth', '%', 102),
  ('Nc1cc(F)ccc1[N+](=O)[O-]', 'SK-MEL-28 melanoma', 'growth', '%', 104),
  ('ClCc1cccc2c(CCl)cccc12', 'SK-MEL-28 melanoma', 'growth', '%', 83.7),
  ('Cc1cc(C)cc(OCC(=O)O)c1', 'SK-MEL-28 melanoma', 'growth', '%', 107),
  ('O=C(O)C1CSC(c2ccccc2)N1 (centres undefined)', 'SK-MEL-28 melanoma', 'growth', '%', 99.6),
  ('CS(=O)(=O)c1ccc(/C=C\C(=O)O)cc1', 'SK-MEL-28 melanoma', 'growth', '%', 105),
  ('Cc1nc(O)cc(=O)[nH]1', 'SK-MEL-28 melanoma', 'growth', '%', 110),
  ('CC(=O)Nc1ccc(C(=O)c2ccc(S(=O)(=O)Nc3ccccc3)cc2)cc1', 'SK-MEL-28 melanoma', 'growth', '%', 114),
  ('CC(C)C1CCC(C)C(O)C1 (centres undefined)', 'SK-MEL-28 melanoma', 'growth', '%', 110),
  ('Cc1onc(-c2ccccc2Cl)c1C(=O)Cl', 'SK-MEL-28 melanoma', 'growth', '%', 92.6),
  ('Cc1ccc(S(=O)(=O)CCCl)cc1', 'SK-MEL-28 melanoma', 'growth', '%', 115),
  ('CC(C)NC(=O)OCc1c(COC(=O)NC(C)C)c(-c2ccc(Cl)cc2)n2c1CCC2', 'SK-MEL-28 melanoma', 'growth', '%', 84.7),
  ('CN(C)c1ccc(O)c2c1CC1CC3C(N(C)C)C(=O)C(C(N)=O)=C(O)C3(O)C(=O)C1=C2O (centres undefined)', 'SK-MEL-28 melanoma', 'growth', '%', 47.4),
  ('CCN(CC)c1ccc2nc3ccc(N=Nc4ccc(N(C)C)cc4)cc3[n+](-c3ccccc3)c2c1', 'SK-MEL-28 melanoma', 'growth', '%', -36.1),
  ('NCCCN1CCCC1=O', 'SK-MEL-28 melanoma', 'growth', '%', 111),
  ('Cc1cc(Nc2ccc3c(c2)OCO3)c2cc3c(cc2n1)OCO3', 'SK-MEL-28 melanoma', 'growth', '%', 34.2),
  ('Cc1ccc(Cc2ccc(C)cc2)cc1', 'SK-MEL-28 melanoma', 'growth', '%', 107),
  ('Nc1ncc([N+](=O)[O-])cn1', 'SK-MEL-28 melanoma', 'growth', '%', 103),
  ('Nc1cccc2cccc(O)c12', 'SK-MEL-28 melanoma', 'growth', '%', 111),
  ('CCOc1ccc2c(c1)c(C)cc(C)[n+]2CC', 'SK-MEL-28 melanoma', 'growth', '%', 102),
  ('Oc1ccc2ccccc2c1CN1CCOCC1', 'SK-MEL-28 melanoma', 'growth', '%', 107),
  ('N#C/C(=C\c1ccc(C#N)cc1)C(=O)c1ccccc1', 'SK-MEL-28 melanoma', 'growth', '%', 121),
  ('CC1=CC(=Nc2ccc(N(C)C)cc2)C=C(C)C1=O', 'SK-MEL-28 melanoma', 'growth', '%', 96.8),
  ('C=C(C)COc1ccc(C(C)(C)C)cc1', 'SK-MEL-28 melanoma', 'growth', '%', 108),
  ('Cc1ccc(NC(=S)N2CCOCC2)cc1C', 'SK-MEL-28 melanoma', 'growth', '%', 111),
  ('c1cc(CNCCNCc2ccncc2)ccn1', 'SK-MEL-28 melanoma', 'growth', '%', 101),
  ('CCCC(=O)CC(=O)c1ccccc1', 'SK-MEL-28 melanoma', 'growth', '%', 107),
  ('Cc1cc2nc(C)c(C)nc2cc1C', 'SK-MEL-28 melanoma', 'growth', '%', 110),
  ('NC(=O)NCCO', 'SK-MEL-28 melanoma', 'growth', '%', 113),
  ('CC(C)(CC(=O)O)CC(=O)O', 'SK-MEL-28 melanoma', 'growth', '%', 99.2),
  ('COc1ccc(C(=O)/C(=N/Nc2ccccc2)c2ccc(OC)cc2)cc1', 'SK-MEL-28 melanoma', 'growth', '%', 111),
  ('NC(=O)c1cc2c3ccccc3ccn2c1-c1ccccc1', 'SK-MEL-28 melanoma', 'growth', '%', 105);
